Target: T1, IL1-RAP (antigen of the kinetic measurements of Tables 5A and 5B) (human, UniProt Q9NPH3 21-359, limits assumed)
T1 sequence: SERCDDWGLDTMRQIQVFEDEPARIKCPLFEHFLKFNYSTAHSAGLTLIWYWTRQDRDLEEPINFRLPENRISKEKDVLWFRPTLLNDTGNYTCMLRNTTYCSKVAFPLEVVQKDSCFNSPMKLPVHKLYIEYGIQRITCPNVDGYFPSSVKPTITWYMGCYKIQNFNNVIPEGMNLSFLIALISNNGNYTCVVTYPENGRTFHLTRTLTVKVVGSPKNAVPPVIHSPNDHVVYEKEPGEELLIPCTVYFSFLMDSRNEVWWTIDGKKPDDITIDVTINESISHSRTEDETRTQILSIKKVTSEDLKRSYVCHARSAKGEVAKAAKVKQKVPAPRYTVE
Assay: kinetics, Table 5A; method and antigen form not stated
// reported koff per item

# binder, koff
measured = [
    ("humanized clone of 54.9D7 hH2L3 (antibody, V domains shown, Humanized; also called 54.9D7 H2L3) VH: QVQLVQSGAEVKKPGASVKVSCKASGYIFITYWMNWVRQAPGQGLEWVGQIFPASGTTYYAQKFQGRVTMTVDTSTSTVYMELSSLRSEDTAVYYCARTDFYRYDGGYALDYWGQGTLVTVSS VL: DIQLTQSPSSLSASVGDRATITCRASQSVSTSGYSSMHWYQQKPGKAPKLLIKYASDLESGVPSRFSGSGSGTDFTLTISSVQPEDFATYYCHHSWGIPMYTFGQGTKLEIKR", "< 1e-07 s⁻¹"),
    ("humanized clone of 54.9D7 hH1L3 (antibody, V domains shown, Humanized; also called 54.9D7 H1L3) VH: QVQLVQSGAEVKKPGASVKVSCKASGYIFITYWMNWVRQAPGQGLEWMGQIFPASGTTYYAQKFQGRVTMTRDTSTSTVYMELSSLRSEDTAVYYCARTDFYRYDGGYALDYWGQGTLVTVSS VL: DIQLTQSPSSLSASVGDRATITCRASQSVSTSGYSSMHWYQQKPGKAPKLLIKYASDLESGVPSRFSGSGSGTDFTLTISSVQPEDFATYYCHHSWGIPMYTFGQGTKLEIKR", "7.57e-05 s⁻¹"),
    ("chimeric 54.9D7 (antibody, V domains shown, Chimeric antibody; also called Chi54.9D7) VH: HVQLQQSGPELVRPGASVKLSCKASGYIFITYWMNWVKQRPGQGLEWVGQIFPASGTTYYNELFEGKATLTVDTSSNTAYMHLTSLTSEDSAVYYCARTDFYRYDGGYALDYWGQGTSLTVSS VL: DIVLTQSPISLAVFLGQRATISCRASQSVSTSGYSSMHWYQQKAGQPPKLLIKYASDLESGVPVRFSGSGSGTDFILNIHPVEVEDIATYYCHHSWGIPMYTFGGGTKLEIKR", "< 1e-07 s⁻¹"),
]
